# assay: AUC in BALB/c mouse at 10 mg/kg, po
# Type: ADME, organism-based
# Parameters: dose 10 mg/kg, route oral
# test conditions: plasma

# smiles input, AUC [ng·h/mL]
records = [
    ("Cc1ccccc1NC(=O)Nc1ccc(CC(=O)N2C[C@@H](F)C[C@H]2COc2ccc(C(=O)O)cc2)cc1Cl", 2540),
]

###

The compounds listed here are annotated with their AUC.
# assay: AUC in Sprague-Dawley rat 10 mg/kg, po
# Type: ADME, organism-based
# Parameters: dose 10 mg/kg, route oral
# test conditions: plasma

# smiles input, AUC (ng·h/mL)
data = [
    ("Cc1ccccc1NC(=O)Nc1ccc(CC(=O)N2C[C@@H](F)C[C@H]2COc2ccc(C(=O)O)cc2)cc1Cl", 11500),
    ("Cc1cc(CC(=O)N2C[C@@H](F)C[C@H]2COc2ccc(C(=O)O)cc2)ccc1NC(=O)Nc1ccccc1Br", 5230),
]

###

# assay: in vivo
# test conditions: BALB/c, mouse, serum, 50 mg/kg

# smiles input, concentration at 0.5 h / ng/mL
measured = [
    ("COc1cc(CC(=O)N2C[C@@H](F)C[C@H]2COc2ccc(C(=O)O)cc2)ccc1NC(=O)Nc1ccccc1Cl", 142),
]

###

# assay: in vivo
# test conditions: Sprague-Dawley, rat, 10 mg/kg

# smiles input, bioavailability, %
measured = [
    ("Cc1ccccc1NC(=O)Nc1ccc(CC(=O)N2C[C@@H](F)C[C@H]2COc2ccc(C(=O)O)cc2)cc1Cl", 36),
    ("Cc1cc(CC(=O)N2C[C@@H](F)C[C@H]2COc2ccc(C(=O)O)cc2)ccc1NC(=O)Nc1ccccc1Br", 34),
]

###

# assay: in vivo
# test conditions: beagle, dog, po, 2 mg/kg

# smiles input, bioavailability, %
rows = [
    ("Cc1ccccc1NC(=O)Nc1ccc(CC(=O)N2C[C@@H](F)C[C@H]2COc2ccc(C(=O)O)cc2)cc1Cl", 55),
]

###

# assay: in vivo
# test conditions: BALB/c, mouse, serum, 10 mg/kg
measure: concentration at […]

# smiles input, assay value
records = [
    ("Cc1cc(CC(=O)N2C[C@@H](F)C[C@H]2COc2ccc(C(=O)O)cc2)ccc1NC(=O)Nc1ccccc1Cl", "472 ng/mL"),
    ("Cc1cc(CC(=O)N2C[C@@H](F)C[C@H]2COc2ccc(C(=O)O)cc2)ccc1NC(=O)Nc1ccccc1Br", "693 ng/mL"),
    ("O=C(Nc1ccc(CC(=O)N2C[C@@H](F)C[C@H]2COc2ccc(C(=O)O)cc2)cc1Cl)Nc1ccccc1Br", "2160 ng/mL"),
    ("Cc1ccccc1NC(=O)Nc1ccc(CC(=O)N2C[C@@H](F)C[C@H]2COc2ccc(C(=O)O)cc2)cc1C", "368 ng/mL"),
    ("O=C(Nc1ccccc1Cl)Nc1ccc(CC(=O)N2C[C@@H](F)C[C@H]2COc2ccc(C(=O)O)cc2)cc1Br", "1880 ng/mL"),
    ("Cc1ccccc1NC(=O)Nc1ccc(CC(=O)N2C[C@@H](F)C[C@H]2COc2ccc(C(=O)O)cc2)cc1Cl", "3660 ng/mL"),
]

###

# assay: in vivo
# test conditions: Sprague-Dawley, rat, plasma, iv, 10 mg/kg
measure: AUC

# smiles input, measure, assay value
rows = [
    ("Cc1cc(CC(=O)N2C[C@@H](F)C[C@H]2COc2ccc(C(=O)O)cc2)ccc1NC(=O)Nc1ccccc1Br", "AUC", "15600 ng·h/mL"),
    ("Cc1ccccc1NC(=O)Nc1ccc(CC(=O)N2C[C@@H](F)C[C@H]2COc2ccc(C(=O)O)cc2)cc1Cl", "AUC", "31900 ng·h/mL"),
]

###

The molecules listed here are annotated with their logD.
# assay: physchem
# test conditions: octanol/water
measure: logD

# smiles input, measure, assay value
data = [
    ("O=C(Nc1ccc(CC(=O)N2C[C@@H](F)C[C@H]2COc2ccc(C(=O)O)cc2)cc1Cl)Nc1ccccc1Br", "logD", 2.34),
    ("Cc1ccccc1NC(=O)Nc1ccc(CC(=O)N2C[C@@H](F)C[C@H]2COc2ccc(C(=O)O)cc2)cc1C", "logD", 1.09),
    ("COc1cc(CC(=O)N2C[C@@H](F)C[C@H]2COc2ccc(C(=O)O)cc2)ccc1NC(=O)Nc1ccccc1Cl", "logD", 1.87),
    ("Cc1cc(CC(=O)N2C[C@@H](F)C[C@H]2COc2ccc(C(=O)O)cc2)ccc1NC(=O)Nc1ccccc1Cl", "logD", 1.69),
    ("Cc1cc(CC(=O)N2C[C@@H](F)C[C@H]2COc2ccc(C(=O)O)cc2)ccc1NC(=O)Nc1ccccc1Br", "logD", 1.64),
    ("Cc1ccccc1NC(=O)Nc1ccc(CC(=O)N2C[C@@H](F)C[C@H]2COc2ccc(C(=O)O)cc2)cc1Cl", "logD", 1.61),
    ("O=C(Nc1ccccc1Cl)Nc1ccc(CC(=O)N2C[C@@H](F)C[C@H]2COc2ccc(C(=O)O)cc2)cc1Br", "logD", 2.17),
]

###

# assay: in vivo
# test conditions: beagle, dog, 1 mg/kg

# smiles input, MRT (h)
data = [
    ("Cc1ccccc1NC(=O)Nc1ccc(CC(=O)N2C[C@@H](F)C[C@H]2COc2ccc(C(=O)O)cc2)cc1Cl", 1.6),
]

###

# Species: Rattus norvegicus
# test conditions: in vivo, 10 mg/kg
measure: clearance (mL/min/kg)

# smiles input, measure, assay value
measured = [
    ("Cc1ccccc1NC(=O)Nc1ccc(CC(=O)N2C[C@@H](F)C[C@H]2COc2ccc(C(=O)O)cc2)cc1Cl", "clearance", 5.2),
]

###

The compounds listed here are annotated with their MRT.
# assay: in vivo
# test conditions: Sprague-Dawley, rat, blood, 10 mg/kg
measure: MRT (h)

# smiles input, assay value
rows = [
    ("Cc1ccccc1NC(=O)Nc1ccc(CC(=O)N2C[C@@H](F)C[C@H]2COc2ccc(C(=O)O)cc2)cc1Cl", 1.7),
    ("Cc1cc(CC(=O)N2C[C@@H](F)C[C@H]2COc2ccc(C(=O)O)cc2)ccc1NC(=O)Nc1ccccc1Br", 2),
]

###

# assay: in vivo
# test conditions: beagle, dog, plasma, iv, 1 mg/kg
measure: AUC (ng·h/mL)

# smiles input, assay value
measured = [
    ("Cc1ccccc1NC(=O)Nc1ccc(CC(=O)N2C[C@@H](F)C[C@H]2COc2ccc(C(=O)O)cc2)cc1Cl", 5680),
]

###

# Test system: Mus musculus
# assay: Cmax in BALB/c mouse at 20 mg/kg, po normalized to 10 mg/kg after 15 mins
# Format: ADME, organism-based
# Parameters: dose 20 mg/kg, route oral
# test conditions: in vivo
measure: Cmax (ng/mL)

# smiles input, assay value
measured = [
    ("Cc1cc(CC(=O)N2C[C@@H](F)C[C@H]2COc2ccc(C(=O)O)cc2)ccc1NC(=O)Nc1ccccc1Br", 391),
]

###

# assay: in vivo
# test conditions: Sprague-Dawley, rat, 10 mg/kg
measure: Vd

# smiles input, measure, assay value
measured = [
    ("Cc1cc(CC(=O)N2C[C@@H](F)C[C@H]2COc2ccc(C(=O)O)cc2)ccc1NC(=O)Nc1ccccc1Br", "Vd", "0.29 L/kg"),
    ("Cc1ccccc1NC(=O)Nc1ccc(CC(=O)N2C[C@@H](F)C[C@H]2COc2ccc(C(=O)O)cc2)cc1Cl", "Vd", "0.24 L/kg"),
]

###

# Species: Canis familiaris
# test conditions: dog, in vivo, po, 1 mg/kg

# smiles input, Cmax / ng/mL
measured = [
    ("Cc1ccccc1NC(=O)Nc1ccc(CC(=O)N2C[C@@H](F)C[C@H]2COc2ccc(C(=O)O)cc2)cc1Cl", 2370),
]

###

# assay: in vivo
# test conditions: BALB/c, mouse, 5 mg/kg

# smiles input, bioavailability, %
rows = [
    ("Cc1cc(CC(=O)N2C[C@@H](F)C[C@H]2COc2ccc(C(=O)O)cc2)ccc1NC(=O)Nc1ccccc1Br", 21),
    ("Cc1ccccc1NC(=O)Nc1ccc(CC(=O)N2C[C@@H](F)C[C@H]2COc2ccc(C(=O)O)cc2)cc1Cl", 28),
]

###

# assay: in vivo
# test conditions: BALB/c, mouse, 5 mg/kg
measure: MRT

# smiles input, assay value
rows = [
    ("Cc1ccccc1NC(=O)Nc1ccc(CC(=O)N2C[C@@H](F)C[C@H]2COc2ccc(C(=O)O)cc2)cc1Cl", "1.2 h"),
]

###

# assay: in vivo
# test conditions: Sprague-Dawley, rat, plasma, 10 mg/kg
measure: clearance (mL/min/kg)

# smiles input, units symbol, assay value
rows = [
    ("Cc1cc(CC(=O)N2C[C@@H](F)C[C@H]2COc2ccc(C(=O)O)cc2)ccc1NC(=O)Nc1ccccc1Br", "mL/min/kg", 11.3),
]

Values compiled from ChEMBL document CHEMBL1142898.
